biological target: human ROR1 (Homo sapiens); construct: host or cells: HEK 293T cells, Tet-on system induced with doxycycline; experiment: ROR1 high content cell-based binding assay; conditions: read-out: ROR1 Binding 293T Human HC Cell Based Assay IC50
Positions of bridges follow the written chain, without caps; N, C: chain ends. Non-standard residues stand in square brackets, D forms with d. Residues, ends and D or L forms follow the SMILES beside them. NMeF = CN[C@@H](Cc1ccccc1)C(=O)O
Would you mind telling me the reported pIC50 of each entry?
The meaning of pIC50 here: minus log10 of the concentration in molar units.

Supply reported pIC50 belonging to this compound: CC(C)C[C@@H]1NC(=O)[C@H](Cc2ccc(O)cc2)NC(=O)[C@H](Cc2ccccc2)NC(=O)CSC[C@@H](C(=O)NCC(N)=O)NC(=O)[C@H](CC(C)C)NC(=O)[C@H](Cc2ccccc2)N(C)C(=O)[C@H](Cc2ccc(O)cc2)NC(=O)[C@H](Cc2c[nH]c3ccccc23)NC(=O)CNC(=O)[C@H](CO)NC(=O)[C@H](C(C)C)NC(=O)[C@H](C(C)C)NC1=O [Example 1034] ({CH2CO}-FYLVVSGWY[NMeF]LCG-NH2; thioether N-12) 6.61

Specify pIC50 for CC(C)C[C@@H]1NC(=O)[C@H](Cc2ccc(O)cc2)NC(=O)[C@H](Cc2ccccc2)NC(=O)CSC[C@@H](C(=O)NCC(N)=O)NC(=O)[C@H](CC(C)C)NC(=O)[C@H](Cc2ccccc2)N(C)C(=O)[C@H](Cc2ccc(O)cc2)NC(=O)[C@H](Cc2c[nH]c3ccccc23)NC(=O)CNC(=O)[C@@H](C)NC(=O)[C@H](Cc2ccc(O)cc2)NC(=O)[C@H](C(C)C)NC1=O [Example 1048] ({CH2CO}-FYLVY[dA]GWY[NMeF]LCG-NH2; thioether N-12) and stop. 6.18

Tell me its pIC50 given CC(C)C[C@@H]1NC(=O)[C@H](CC(N)=O)NC(=O)[C@H](Cc2ccccc2)N(C)C(=O)CNC(=O)[C@H](Cc2ccccc2)NC(=O)[C@H](Cc2ccccc2)NC(=O)CSC[C@@H](C(N)=O)NC(=O)[C@H](Cc2c[nH]c3ccccc23)NC(=O)[C@H](Cc2ccc(O)cc2)NC1=O [Example 1108] ({CH2CO}-FFG[NMeF]NLYWC-NH2; thioether N-9) as the entry. 6.39

* * *

Field: log10 of IC50. Provide a value for each of the compounds that follow.
target: human ROR1 (Homo sapiens, UniProt Q01973); construct: host or cells: HEK 293T cells, Tet-on system induced with doxycycline; experiment: ROR1 high content cell-based binding assay; settings: read-out: ROR1 Binding 293T Human HC Cell Based Assay IC50
Sequence (Q01973 30-937): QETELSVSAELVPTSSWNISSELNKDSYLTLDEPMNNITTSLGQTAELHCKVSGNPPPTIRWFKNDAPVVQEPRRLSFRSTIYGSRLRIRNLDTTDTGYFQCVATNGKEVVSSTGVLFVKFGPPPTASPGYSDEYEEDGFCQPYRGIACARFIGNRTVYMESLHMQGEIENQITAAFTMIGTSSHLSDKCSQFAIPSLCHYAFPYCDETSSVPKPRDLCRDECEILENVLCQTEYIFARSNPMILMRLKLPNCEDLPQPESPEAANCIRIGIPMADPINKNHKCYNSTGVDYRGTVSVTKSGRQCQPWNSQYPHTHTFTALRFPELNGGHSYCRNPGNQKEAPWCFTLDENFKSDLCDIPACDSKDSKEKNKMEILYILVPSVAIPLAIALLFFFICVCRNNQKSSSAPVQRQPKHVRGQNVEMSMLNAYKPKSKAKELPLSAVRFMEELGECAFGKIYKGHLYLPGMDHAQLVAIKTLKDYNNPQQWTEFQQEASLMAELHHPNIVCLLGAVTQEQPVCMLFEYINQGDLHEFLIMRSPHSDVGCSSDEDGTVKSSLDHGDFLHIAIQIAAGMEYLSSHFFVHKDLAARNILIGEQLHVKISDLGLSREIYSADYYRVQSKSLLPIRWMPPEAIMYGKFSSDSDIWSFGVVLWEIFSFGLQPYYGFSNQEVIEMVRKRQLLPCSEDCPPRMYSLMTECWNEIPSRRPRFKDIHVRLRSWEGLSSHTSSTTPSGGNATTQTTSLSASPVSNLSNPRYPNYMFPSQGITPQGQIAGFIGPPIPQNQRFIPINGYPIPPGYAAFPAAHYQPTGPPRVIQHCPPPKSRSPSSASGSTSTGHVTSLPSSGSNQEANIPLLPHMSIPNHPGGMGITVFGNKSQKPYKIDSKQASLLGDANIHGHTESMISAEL
Positions of bridges follow the written chain, without caps; N, C: chain ends. Non-standard residues stand in square brackets, D forms with d. Residues, ends and D or L forms follow the SMILES beside them. NMeF = CN[C@@H](Cc1ccccc1)C(=O)O
Each number you see is log10 of IC50, and the unit inside the log is nM.

Dear colleague, please send me the reported log10 of IC50 for CC(C)C[C@@H]1NC(=O)[C@H](Cc2ccccc2)NC(=O)CSC[C@@H](C(=O)NCC(N)=O)NC(=O)[C@H](C)NC(=O)[C@H](Cc2ccc(O)cc2)NC(=O)[C@H](Cc2ccc(O)cc2)NC(=O)[C@H](Cc2c[nH]c3ccccc23)NC(=O)CNC(=O)[C@H](Cc2ccc(O)cc2)NC(=O)[C@H](CCCNC(=N)N)NC(=O)[C@H](C(C)C)NC(=O)[C@H](Cc2c[nH]c3ccccc23)NC1=O [Example 1005] ({CH2CO}-FLWVRYGWYYACG-NH2; thioether N-12) when you can. 1.48

Give me measured log10 of IC50, please, for this compound: CC(C)C[C@@H]1NC(=O)[C@H](CC(N)=O)NC(=O)[C@H](Cc2ccccc2)N(C)C(=O)CNC(=O)[C@H](Cc2ccc(O)cc2)NC(=O)[C@H](Cc2ccc(O)cc2)NC(=O)CSC[C@@H](C(N)=O)NC(=O)[C@H](Cc2c[nH]c3ccccc23)NC(=O)[C@H](Cc2ccc(O)cc2)NC1=O [Example 1120] ({CH2CO}-YYG[NMeF]NLYWC-NH2; thioether N-9) 2.90

Return log10 of IC50 (reported value) for this compound: CC(C)C[C@@H]1NC(=O)[C@H](Cc2ccc(O)cc2)NC(=O)[C@H](Cc2ccccc2)NC(=O)CSC[C@@H](C(N)=O)NC(=O)[C@H](CC(C)C)NC(=O)[C@H](Cc2ccccc2)N(C)C(=O)[C@H](Cc2ccc(O)cc2)NC(=O)[C@H](Cc2c[nH]c3ccccc23)NC(=O)CNC(=O)[C@H](CO)NC(=O)[C@H](Cc2ccc(O)cc2)NC(=O)[C@H](C(C)C)NC1=O [Example 1036] ({CH2CO}-FYLVYSGWY[NMeF]LC-NH2; thioether N-12) 0.85

Specify reported log10 of IC50 for the compound shown: CC(C)C[C@@H]1NC(=O)[C@H](Cc2ccccc2)NC(=O)CSC[C@@H](C(=O)NCC(N)=O)NC(=O)[C@H](C)NC(=O)[C@H](Cc2c[nH]c3ccccc23)NC(=O)[C@H](Cc2ccccc2)NC(=O)[C@H](Cc2c[nH]c3ccccc23)NC(=O)CNC(=O)[C@H](Cc2ccc(O)cc2)NC(=O)[C@H](CCCNC(=N)N)NC(=O)[C@H](C(C)C)NC(=O)[C@H](Cc2c[nH]c3ccccc23)NC1=O [Example 1004] ({CH2CO}-FLWVRYGWFWACG-NH2; thioether N-12) 2.00

Report log10 of IC50, nothing else, for this compound: CC(C)C[C@@H]1NC(=O)[C@H](Cc2ccc(O)cc2)NC(=O)[C@H](CC(N)=O)NC(=O)CSC[C@@H](C(=O)NCC(N)=O)NC(=O)[C@H](CC(C)C)NC(=O)[C@H](Cc2ccccc2)N(C)C(=O)[C@H](Cc2ccc(O)cc2)NC(=O)[C@H](Cc2c[nH]c3ccccc23)NC(=O)CNC(=O)[C@H](CO)NC(=O)[C@H](Cc2ccc(O)cc2)NC(=O)[C@H](C(C)C)NC1=O [Example 1076] ({CH2CO}-NYLVYSGWY[NMeF]LCG-NH2; thioether N-12) 2.71

* * *

target: human ROR1 (Homo sapiens, UniProt Q01973); construct: host or cells: HEK 293T cells, Tet-on system induced with doxycycline; assay: ROR1 high content cell-based binding assay; details: read-out: ROR1 Binding 293T Human HC Cell Based Assay IC50
Positions of bridges follow the written chain, without caps; N, C: chain ends. Non-standard residues stand in square brackets, D forms with d. Residues, ends and D or L forms follow the SMILES beside them. NMeF = CN[C@@H](Cc1ccccc1)C(=O)O; Sar = CNCC(=O)O
measured-quantity: pIC50
Bear in mind: pIC50 is minus log10 of a mol/L concentration; give just that figure.

Give the reported value of pIC50 for this record: CC(C)C[C@@H]1NC(=O)[C@H](Cc2ccc(O)cc2)NC(=O)[C@H](Cc2ccccc2)N(C)C(=O)CSC[C@@H](C(=O)NCC(N)=O)NC(=O)[C@H](CC(C)C)NC(=O)[C@H](Cc2ccccc2)N(C)C(=O)[C@H](Cc2ccc(O)cc2)NC(=O)[C@H](Cc2c[nH]c3ccccc23)NC(=O)CNC(=O)[C@H](CO)NC(=O)[C@H](Cc2ccc(O)cc2)NC(=O)[C@H](C(C)C)NC1=O [Example 1082] ({CH2CO}-[NMeF]YLVYSGWY[NMeF]LCG-NH2; thioether N-12) 6.72

Give a short answer stating reported pIC50 for CC(C)C[C@@H]1NC(=O)[C@H](Cc2ccccc2)NC(=O)CSC[C@@H](C(=O)NCC(N)=O)NC(=O)[C@H](C(C)C)NC(=O)[C@H](Cc2c[nH]c3ccccc23)NC(=O)[C@H](CC(C)C)NC(=O)[C@H](Cc2c[nH]c3ccccc23)NC(=O)CN(C)C(=O)CNC(=O)[C@H](C(C)C)NC(=O)[C@H](Cc2c[nH]c3ccccc23)NC1=O [Example 1205] ({CH2CO}-FLWVG[Sar]WLWVCG-NH2; thioether N-11) . 6.46

Given CC(C)C[C@@H]1NC(=O)[C@H](Cc2ccc(O)cc2)NC(=O)[C@H](Cc2ccccc2)NC(=O)CSC[C@@H](C(=O)NCC(N)=O)NC(=O)[C@H](CC(C)C)NC(=O)[C@H](Cc2ccccc2)N(C)C(=O)[C@H](Cc2ccc(O)cc2)NC(=O)[C@H](Cc2c[nH]c3ccccc23)NC(=O)CNC(=O)[C@H](C)NC(=O)[C@H](Cc2ccc(O)cc2)NC(=O)[C@H](C(C)C)NC1=O [Example 1020] ({CH2CO}-FYLVYAGWY[NMeF]LCG-NH2; thioether N-12) , respond with its pIC50. 7.74

* * *

Target: human ROR1 (Homo sapiens, UniProt Q01973)
Construct: host or cells: HEK 293T cells, Tet-on system induced with doxycycline
Experiment: ROR1 high content cell-based binding assay
Conditions: read-out: ROR1 Binding 293T Human HC Cell Based Assay IC50
Description: ROR1 high content cell-based binding assay: Human embryonic kidney 293T cells (293T) expressing human ROR1 with Tet-on system by doxycycline were used (Arctic-488134) for the assessment of inhibition of the binding of fluorescently-labeled competing peptide (“Probe”) that specifically binds to human ROR1. […] Cryopreserved vials were thawed in a 37° C. water bath. Cells were washed in assay culture media [DMEM (Life Technologies Inc. Cat. […]
Positions of bridges follow the written chain, without caps; N, C: chain ends. Non-standard residues stand in square brackets, D forms with d. Residues, ends and D or L forms follow the SMILES beside them. ξ: configuration not given here. NMeF = CN[C@@H](Cc1ccccc1)C(=O)O; ξD = NC(CC(=O)O)C(=O)O
Provide the reported IC50 of each item.
The answer is to be given in nM; state only the numeric part.

With human ROR1 (Homo sapiens, UniProt Q01973) as the test system, provide measured IC50 for this compound: CC(C)C[C@@H]1NC(=O)[C@H](Cc2ccc(O)cc2)NC(=O)[C@H]([C@@H](C)O)NC(=O)CSC[C@@H](C(=O)NCC(N)=O)NC(=O)[C@H](CC(C)C)NC(=O)[C@H](Cc2ccccc2)N(C)C(=O)[C@H](Cc2ccc(O)cc2)NC(=O)[C@H](Cc2c[nH]c3ccccc23)NC(=O)CNC(=O)[C@H](CO)NC(=O)[C@H](Cc2ccc(O)cc2)NC(=O)[C@H](C(C)C)NC1=O [Example 1073] ({CH2CO}-TYLVYSGWY[NMeF]LCG-NH2; thioether N-12) 249

Report IC50 on human ROR1 (Homo sapiens, UniProt Q01973) for this entry: CC(C)C[C@@H]1NC(=O)[C@H](Cc2c[nH]c3ccccc23)NC(=O)[C@H](Cc2ccc(O)cc2)NC(=O)[C@H](Cc2c[nH]c3ccccc23)NC(=O)CNC(=O)C(CC(=O)O)NC(=O)[C@H](Cc2ccc(O)cc2)NC(=O)[C@H](C(C)C)NC(=O)[C@@H]2CCCN2C(=O)[C@H](Cc2ccc(O)cc2)NC(=O)[C@H](Cc2ccccc2)NC(=O)CSC[C@@H](C(=O)NCC(N)=O)NC1=O (some centres unmarked) [Example 1009] ({CH2CO}-FYPVY[ξD]GWYWLCG-NH2; thioether N-12) 54

Taken from patent US20240116988A1.
